system name: RSV F protein of recombinant mKate-RSV, subtype B (18537) (Respiratory syncytial virus subtype B …, UniProt P13843 26-574)
test protocol: cell-based or functional assay
Listing of entries alongside the reported Neut IC50 subtype B.
Give your result in µg/mL as a bare value.

Consider the following illustrative entries.
ADI-14507 (antibody, V domains shown, full-length IgG (yeast-expressed); also called Antibody Number 68; Ab# 68) VH: QITLKESGPTLVKPTQTLTLTCTLSGFSLSTPRMGVGWIRQPPGKALEWLALIDWDDDRRYSPSLKTRLTITKDTSKNQVVLRMTDMDPVDTGTYYCVHSDVYTTGGYYLYYFDYWGQGTLVTVSS VL: DIQVTQSPSSLSASVGDRVTITCRASQTIPSYLNWYQHKPGKAPQLLIYAASNLRSGVPPRFRGSGSGTDFTLTVSSLQPEDFATYFCQQSYSSPYTFGQGTKLEIK    0.173
ADI-14520 (antibody, V domains shown) VH: QVQLQQWGAGLVKPSETLSLTCAVYGGSFSGYQWHWFRQPPGKGLEWIGEINHSEITHYNASLKSRVTLSIDTSKNQFSLNLTSVTAADTAVYYCARASSGSYNFEYWFDPWGQGTLVTVSS VL: QSVLTQPPSVSVAPGKTAWLTCGGNNIGSKRVHWYRQKPGQAPVLVVYDDYDRPSGTPERVSGSNSGNTATLTISRVEDGDEGDYYCQVWDDPSDHAVFGGGTKLTVL    0.045
ADI-14469 (antibody, V domains shown, full-length IgG (yeast-expressed); also called Antibody Number 32; Ab# 32) VH: QVQLVESGPTLVKPTQTLTLTCTFSGFSLTTRGVGVGWVRQPPGKALEFLGLTHWDDDKIYSPSLRRRLTITKDTSKNQVVLALANVDPVDTATYFCVKSDLYDRGGYYLYYFDYWGQGTLVTVSS VL: EIVLTQSPSSLSASVGDRVTITCRASQTIPSYVNWYLQRPGEAPKLLIYGASNLHTGAPPTFIGRGSGADFTLTINTLQPEHFGTYYCQQTFSSPYTFGQGTKVEIK    0.013
ADI-14478 (antibody, V domains shown) VH: EVQLVESGGGLVKPGGSLRLSCAASGFTFSDYYMSWIRQAPGKGLEWVSYISISSSYTDYADSVKGRFTISRDNAKNSLYLQMNSLRAEDTAVYYCARDQRDQAVAGRWFDPWGQGTLVTVSS VL: QSVVTQPPSVSGAPGQRVTISCTGSSSNIGAGFDVHWYQQVPGTAPKLLIYANTNRPSGVPDRFSGSKSGTSASLAITGLKAEDEADYYCQSYDNSLSGSAVFGGGTKVTVL    0.057

Shifting focus to the binder that follows.
Measured Neut IC50 subtype B, ADI-14440 (antibody, V domains shown, full-length IgG (yeast-expressed); also called Antibody Number 3; Ab# 3) VH: QVQLVQSGAEVKKPGSSVKVSCKASGGTINNVAISWLRQAPGQGLEWLGGNIPGFGKVRYSQQFETRLTLTADVSSDTAYMVLTSLRSEDTAVYYCAIIDPQLCTRASCFWVNWLDPWGQGTTVTVSS VL: DIVMTQSPGTLSVSPGESAALSCGASESILSDSLAWYQHKPGQAPRLLIYGASSRAAGIPDRFSGSGSGTDFTLTISRLEPEDFAVYFCQQFGALPITFGQGTRLEIK : 4.18
